system: 4-AP bursting; test: 4-AP bursting in primate neocortical seizure model; assay type: in vivo; conditions: Keppra 2×40 mg/kg
Measurement Kind: block of 4-AP bursting

O=C1NC(c2ccccc2)(c2ccccc2)C(=O)N1COP(=O)(O)O = block 4-AP bursting
CCCC(C)C1(CC)C(=O)NC(=S)NC1=O (stereo not shown) [pentothal, sodium thiopental] = block 4-AP bursting
CCCCNc1cc(C(=O)O)cc(S(N)(=O)=O)c1Oc1ccccc1 [Bumetanide, reference compound] = block 4-AP bursting
